// data source = a melting point compilation (Tetko et al.; mined from patent text by program, amines drawn as free bases though some values may be those of a salt)

RECORDED_METRIC: melting point

Prompt line: // lookup melting point for "CSc1nc2ccc(C(F)(F)F)cc2[nH]1"
Response line: 145 to 146 °C

Prompt line: // lookup melting point for "NC1=NS(=O)(=O)c2cccc(Cl)c21"
Response line: 218 °C

Prompt line: // lookup melting point for "COc1cc2cc(-c3ccccc3Cl)sc2c(Cl)c1Cl"
Response line: 170 to 171 °C

Prompt line: // lookup melting point for "CCc1nc(/C=C/c2cn(-c3ccccc3)nc2O)co1"
Response line: 157 to 159 °C

Prompt line: // lookup melting point for "CC(=O)N[C@@H](C)COc1cc2oc(-c3ccc(OC[C@H]4CC4(F)F)c(F)c3)nc2cn1"
Response line: 181 °C

Prompt line: // lookup melting point for COC(=O)Cc1ccc(C(O)(C#N)c2ccccc2)n1C (stereo unspecified)
Response line: 137 to 138 °C
